system: DIPGX7 (H3.3 K27M diffuse intrinsic pontine glioma line); assay: EC50 (inflection of fitted growth-inhibition curve) (log10 M)
endpoint_label: EC50 (log10 M)

molecule: CC(=O)OC[C@H]1O[C@@H]([S-])[C@H](OC(C)=O)[C@@H](OC(C)=O)[C@@H]1OC(C)=O.CCP(CC)CC.[Au+]
endpoint_label: EC50 (log10 M)
value_measured: -5.9
//
molecule: COc1cc(F)ccc1-c1ncnc(Nc2cccc(CS(C)(=N)=O)c2)n1 (stereo unspecified)
endpoint_label: EC50 (log10 M)
value_measured: -5.15
//
molecule: CN(C)C/C=C/C(=O)Nc1cc2c(Nc3ccc(F)c(Cl)c3)ncnc2cc1O[C@H]1CCOC1
endpoint_label: EC50 (log10 M)
value_measured: -4.85
//
molecule: CCN(CC)CCNC(=O)c1c(C)[nH]c(/C=C2\C(=O)Nc3ccc(F)cc32)c1C
endpoint_label: EC50 (log10 M)
value_measured: -4.99
//
molecule: O=C(c1ccc(Nc2nccc(-c3cc4ccccc4s3)n2)cc1)N1CCC(N2CCCC2)CC1
endpoint_label: EC50 (log10 M)
value_measured: -5.27
//
molecule: CC(C)c1c2cc(-c3ccnc(NC4CCC(NC5CCOCC5)CC4)n3)ccc2nn1C (stereo unspecified)
endpoint_label: EC50 (log10 M)
value_measured: -6.89
//
molecule: O=C(Nc1c[nH]nc1-c1nc2ccc(CN3CCOCC3)cc2[nH]1)NC1CC1
endpoint_label: EC50 (log10 M)
value_measured: -4.88
//
molecule: CC[C@]1(O)C[C@H]2CN(CCc3c([nH]c4ccccc34)[C@@](C(=O)OC)(c3cc4c(cc3OC)N(C=O)[C@H]3[C@@](O)(C(=O)OC)[C@H](OC(C)=O)[C@]5(CC)C=CCN6CC[C@]43[C@@H]65)C2)C1
endpoint_label: EC50 (log10 M)
value_measured: -5.71
//
molecule: COc1cccc2c1C(=O)c1c(O)c3c(c(O)c1C2=O)C[C@@](O)(C(=O)CO)C[C@@H]3O[C@H]1C[C@H](N)[C@H](O)[C@H](C)O1
endpoint_label: EC50 (log10 M)
value_measured: -6.06
//
molecule: CCCCc1oc2ccc(NS(C)(=O)=O)cc2c1C(=O)c1ccc(OCCCN(CCCC)CCCC)cc1
endpoint_label: EC50 (log10 M)
value_measured: -5.35
//
molecule: CO[C@H]1C[C@@H]2CC[C@@H](C)[C@@](O)(O2)C(=O)C(=O)N2CCCC[C@H]2C(=O)O[C@H]([C@H](C)C[C@@H]2CC[C@@H](OCCO)[C@H](OC)C2)CC(=O)[C@H](C)/C=C(\C)[C@@H](O)[C@@H](OC)C(=O)[C@H](C)C[C@H](C)/C=C/C=C/C=C/1C
endpoint_label: EC50 (log10 M)
value_measured: -4.76
//
molecule: CCN1CCN(Cc2ccc(Nc3ncc(F)c(-c4cc(F)c5nc(C)n(C(C)C)c5c4)n3)nc2)CC1
endpoint_label: EC50 (log10 M)
value_measured: -6.11
//
molecule: CN(C)C/C=C/C(=O)Nc1ccc(C(=O)Nc2cccc(Nc3ncc(Cl)c(-c4c[nH]c5ccccc45)n3)c2)cc1
endpoint_label: EC50 (log10 M)
value_measured: -8.02
//
molecule: CC(C)C[C@H](NC(=O)CNC(=O)c1cc(Cl)ccc1Cl)B(O)O
endpoint_label: EC50 (log10 M)
value_measured: -7.71
//
molecule: Fc1ccc(N2CCN(CCC3OCCc4ccccc43)CC2)cc1 (stereo unspecified)
endpoint_label: EC50 (log10 M)
value_measured: -4.91
//
molecule: COc1ccc(C[C@H](NC(=O)[C@H](C)NC(=O)CN2CCOCC2)C(=O)N[C@@H](Cc2ccccc2)C(=O)C2(C)CO2)cc1 (stereo in doubt)
endpoint_label: EC50 (log10 M)
value_measured: -6.25

====

system: DIPGX29 (H3.3 K27M diffuse intrinsic pontine glioma line); test: area under dose-response curve of % growth inhibition (log2 RLU vs DMSO / staurosporine), 1e-11 to 1e-4 M (% x log10 M); higher = more growth inhibition
Some compounds, each annotated with its measured area under dose-response curve.
endpoint_label: area under dose-response curve

compound: CC1=C(CC(=O)O)c2cc(F)ccc2/C1=C\c1ccc([S+](C)[O-])cc1 (stereo not drawn)
value_measured: 3.44
//
compound: COc1cc(Nc2ncc3c(n2)-c2ccc(Cl)cc2C(c2c(F)cccc2OC)=NC3)ccc1C(=O)O
value_measured: 52.1
//
compound: CC(C)[C@H]1C(=O)N[C@@H](CCCNC(=N)N)C(=O)NCC(=O)N[C@@H](CC(=O)O)C(=O)N[C@H](Cc2ccccc2)C(=O)N1C [CILENGITIDE]
value_measured: 10.1
//
compound: Clc1ccc(NN=C(c2ccccc2)c2ccccn2)nc1
value_measured: 63.6
//
compound: CC(N[C@H]1C[C@@H]1c1ccccc1)c1ccc2c(c1)OCCO2 (stereo partly drawn)
value_measured: 6.56
//
compound: CCCSc1ccc2[nH]c(NC(=O)OC)nc2c1
value_measured: 33.5
//
compound: C[C@H]1[C@H](OC(=O)CCC(=O)O)O[C@@H]2O[C@@]3(C)CC[C@H]4[C@H](C)CC[C@@H]1[C@@]24OO3 [ARTESUNATE]
value_measured: 8.84
//
compound: c1cc(CN2CCCNCCNCCCNCC2)ccc1CN1CCCNCCNCCCNCC1
value_measured: 16.6

====

Below, each of the compounds is paired with its reported maximal growth inhibition value.
test system: DIPGX37 (H3.3 K27M diffuse intrinsic pontine glioma line); assay: maximal growth inhibition (yFin) relative to DMSO / staurosporine; higher = more efficacious
endpoint_label: maximal growth inhibition (%)

compound: COc1cc([C@@H]2c3cc4c(cc3[C@@H](O[C@@H]3O[C@@H]5CO[C@@H](c6cccs6)O[C@H]5[C@H](O)[C@H]3O)[C@H]3COC(=O)[C@H]23)OCO4)cc(OC)c1O [TENIPOSIDE]
subject_of_test: DIPGX37
value_measured: 50.7
//
compound: CN(C(=O)CN(CCO)CC(=O)N(C)C(C)(C)Cc1ccccc1)C(C)(C)Cc1ccccc1 [OXETHAZAINE]
subject_of_test: DIPGX37
value_measured: 82.1
//
compound: CC[C@H](C)C(=O)O[C@H]1C[C@@H](C)C=C2C=C[C@H](C)[C@H](CC[C@@H]3C[C@@H](O)CC(=O)O3)[C@H]21 [LOVASTATIN]
subject_of_test: DIPGX37
value_measured: 23.7
//
compound: COC1=CC(c2cc3ccccc3[nH]2)=N/C1=C\c1[nH]c(C)cc1C [OBATOCLAX]
subject_of_test: DIPGX37
value_measured: 128
//
compound: Cc1[nH]c2ccccc2c1CCNCc1ccc(/C=C/C(=O)NO)cc1 [PANOBINOSTAT]
subject_of_test: DIPGX37
value_measured: 76.5
//
compound: CCCCC(CC)CNC(=N)NC(=N)NCCCCCCNC(=N)NC(=N)NCC(CC)CCCC (configuration not stated) [ALEXIDINE]
subject_of_test: DIPGX37
value_measured: 78.2
//
compound: O=C(CCCCCCNC(=O)c1cnc(N(c2ccccc2)c2ccccc2)nc1)NO [ROCILINOSTAT]
subject_of_test: DIPGX37
value_measured: 39.7

====

system: HGGX6 (H3.3 G34R paediatric high-grade glioma line); experiment: EC50 (inflection of fitted growth-inhibition curve) (log10 M)

compound: CCc1c2c(nc3ccc(O)cc13)-c1cc3c(c(=O)n1C2)COC(=O)[C@]3(O)CC
EC50 (log10 M): -6.77
--
compound: CC[C@@]1(O)C[C@H](O[C@H]2C[C@H](N(C)C)[C@H](O[C@H]3C[C@H](O)[C@H](O[C@H]4CCC(=O)[C@H](C)O4)[C@H](C)O3)[C@H](C)O2)c2c(cc3c(c2O)C(=O)c2c(O)cccc2C3=O)[C@H]1C(=O)OC
EC50 (log10 M): -5.33
--
compound: O=C(Nc1ccccc1-c1cn2c(CN3CCNCC3)csc2n1)c1cnc2ccccc2n1
EC50 (log10 M): -5.14
--
compound: CC(C)c1cc(C(=O)N2Cc3ccc(CN4CCN(C)CC4)cc3C2)c(O)cc1O
EC50 (log10 M): -6.73
--
compound: CCCSc1ccc2[nH]c(NC(=O)OC)nc2c1
EC50 (log10 M): -5.18
--
compound: COc1cc2nccc(Oc3ccc(NC(=O)C4(C(=O)Nc5ccc(F)cc5)CC4)cc3)c2cc1OC [CABOZANTINIB]
EC50 (log10 M): -4.79
--
compound: CC(C)(C)c1cc(C(C)(C)C)c(NC(=O)c2c[nH]c3ccccc3c2=O)cc1O
EC50 (log10 M): -5.01
--
compound: COc1cc(Nc2c(C#N)cnc3cc(OCCCN4CCN(C)CC4)c(OC)cc23)c(Cl)cc1Cl
EC50 (log10 M): -4.75
--
compound: CCOC(=O)CCNc1cc(N2CCc3ccccc3CC2)nc(-c2ccccn2)n1
EC50 (log10 M): -4.85
--
compound: COc1cc2nc(N3CCCC3)nc(NCCCCCN3CCCC3)c2cc1OC
EC50 (log10 M): -4.91
--
compound: CO[C@H]1C[C@@H]2CC[C@@H](C)[C@@](O)(O2)C(=O)C(=O)N2CCCC[C@H]2C(=O)O[C@H]([C@H](C)C[C@@H]2CC[C@@H](OC(=O)C(C)(CO)CO)[C@H](OC)C2)CC(=O)[C@H](C)/C=C(\C)[C@@H](O)[C@@H](OC)C(=O)[C@H](C)C[C@H](C)/C=C/C=C/C=C/1C
EC50 (log10 M): -4.79
--
compound: COc1ccc(-c2nc(N3CCOCC3)c3sc(CN(C)c4ncc(C(=O)NO)cn4)cc3n2)cn1
EC50 (log10 M): -6.65
--
compound: c1ccc2c(-c3cnn4cc(-c5ccc(N6CCNCC6)cc5)cnc34)ccnc2c1
EC50 (log10 M): -5.58
--
compound: Nc1ccc2ncnc(NCCc3ccc(Oc4ccccc4)cc3)c2c1
EC50 (log10 M): -8.04
--
compound: CCC(COC(=O)c1cc(OC)c(OC)c(OC)c1)(c1ccccc1)N(C)C (stereo not given)
EC50 (log10 M): -4.87

Where do the numbers come from? From the supplement of paper PMC8253809.
